- Target entity: T1, recombinant MS4A4A soluble polypeptide JS5
- T1 construct: also called JS5.His
- Assay comment: ELISA, 1 ug/ml antibody
Readout label: ELISA OD
Give only the figure.

anti-MS4A4A antibody 4A-354 (antibody, V domains shown, full human IgG) VH: QVQLVQSGSELKKPGASVKVSCKASGYIFTSYGLSWVRQAPGQGLEWMGWINTYSGVPTYAQGFTGRFVFSLDTSVSTAYLQISSLKAEDTAVYYCARTLADYWGQGTLVTVSS VL: DVVMTQSPLSLPVTLGQPASISCKSSRSLLYSAGKTYLSWFQQRPGQSPRRLIYLVSKLDSGVPDRFSGSGSGTDFTLKISRVEAEDVGVYYCWQGIDFHQTFGGGTKVEIK : 0.98
anti-MS4A4A antibody 4A-352 (antibody, V domains shown, full human IgG) VH: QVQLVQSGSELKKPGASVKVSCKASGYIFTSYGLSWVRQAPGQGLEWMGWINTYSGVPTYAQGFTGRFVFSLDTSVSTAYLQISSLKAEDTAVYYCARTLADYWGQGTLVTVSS VL: DVVMTQSPLSLPVTLGQPASISCKSSRSLLYSGGKTYLSWFQQRPGQSPRRLIYLVSKLDSGVPDRFSGSGSGTDFTLKISRVEAEDVGVYYCWQGIDFHQTFGGGTKVEIK : 0.985

# evaluate next
Data request: Fill in ELISA OD for record anti-MS4A4A antibody 4A-376 (antibody, V domains shown, full human IgG) VH: QVQLVQSGSELKKPGASVKVSCKASGYIFTSYGLSWVRQAPGQGLEWMGWINTYSGVPTYAQGFTGRFVFSLDTSVSTAYLQISSLKAEDTAVYYCARSMADYWGQGTLVTVSS VL: DVVMTQSPLSLPVTLGQPASISCKSSRSLLYSDGKTYLSWFQQRPGQSPRRLIYLVSKLDSGVPDRFSGSGSGTDFTLKISRVEAEDVGVYYCWQGIDFHQTFGGGTKVEIK
Data returned: 1.04
